# Test system: Norovirus
# ASSAY METHOD TEXT: Antiviral activity against Norovirus infected in HG23 cells assessed as inhibition of viral replication at 24 hrs by qRT-PCR analysis
# Format: functional
# EXPERIMENTAL CONDITIONS: Norovirus, HG23, 24 h; read-out: ED50 (the source's name)
pEC50: −log10 of the molar value.
The reader will find reported pEC50 values listed item by item below.
PROPERTY: pEC50

>>> recorded_measurement("O=C(CNS(=O)(=O)NCc1cccc(Oc2ccccc2)c1)NCCc1ccccc1")
"< 5.00"
>>> recorded_measurement("O=C(CNS(=O)(=O)NCc1cccc(Oc2ccccc2)c1)NC1CCC(C(=O)O)CC1 (stereo not drawn)")
"< 5.00"
>>> recorded_measurement("COC(=O)CNS(=O)(=O)NCc1cccc(Oc2ccccc2)c1")
"< 5.00"
